assay: Absorbance and fluorescence emission spectra (SpectraMax M2); assay type: physicochemical; conditions: BDCAC library, Table 3
quantity_measured: λmax Emission (nm)

compound	quantity_measured	reading
CC(=O)Nc1ccc(C2=C3C=CC(N4CCCCC4)=[N+]3[B-](F)(F)n3c2ccc3-n2cc(-c3ccc(-c4ccccc4)cc3)nn2)cc1	λmax Emission	574
CCCC(C)c1cn(-c2ccc3n2[B-](F)(F)[N+]2=C(N4CCCCC4)C=CC2=C3c2ccc(NC(C)=O)cc2)nn1 (stereo not drawn)	λmax Emission	585
CC(=O)Nc1ccc(C2=C3C=CC(N4CCCCC4)=[N+]3[B-](F)(F)n3c2ccc3-n2cc(COc3ccccc3)nn2)cc1	λmax Emission	584
COc1cccc(-c2cn(-c3ccc4n3[B-](F)(F)[N+]3=C(N5CCCCC5)C=CC3=C4c3ccc(NC(C)=O)cc3)nn2)c1	λmax Emission	555
CC(=O)Nc1ccc(C2=C3C=CC(N4CCCCC4)=[N+]3[B-](F)(F)n3c2ccc3-n2cc(-c3ccc(C)cc3)nn2)cc1	λmax Emission	556
CCCCCCCc1cn(-c2ccc3n2[B-](F)(F)[N+]2=C(N4CCCCC4)C=CC2=C3c2ccc(NC(C)=O)cc2)nn1	λmax Emission	567

----------
Assay: Absorbance and fluorescence emission spectra (SpectraMax M2)
Assay type: physicochemical
Details: MKCA compound library; absorbance maximum
Protocol: BDC-8 (Blue): absorbance λmax=473 nm, emission λmax=585 nm; MK101-8 (Green): absorbance λmax=474 nm, emission λmax=563 nm; MKHA374-48 (Yellow): absorbance λmax=468 nm, λem=557 nm. The corresponding spectra of a reported BODIPY (BD-27; Red) are also included for comparison: absorbance λmax=551 nm, emission λmax=568 nm. […] ^1H-NMR, ^19F-NMR and ^13C-NMR spectra were recorded on Bruker ACF300 (300 MHz), DPX300 (300 MHz) and AMX500 (500 MHz) spectrometers. […]
quantity_measured: λmax Absorp. (nm)

molecule	unit_abbrev	reading
CCCCCC(O)c1cn(-c2ccc3n2[B-](F)(F)[N+]2=C(N4CCc5ccccc5C4)C=CC2=C3c2ccc(NC(=O)CCl)cc2)nn1 (stereo not shown) [MKCA66-69]	nm	469
CCCCCC(O)c1cn(-c2ccc3n2[B-](F)(F)[N+]2=C(NCc4ccccc4C)C=CC2=C3c2ccc(NC(=O)CCl)cc2)nn1 (stereo not shown) [MKCA101-69]	nm	466
O=C(CCl)Nc1ccc(C2=C3C=CC(N4CCCC4)=[N+]3[B-](F)(F)n3c2ccc3-n2cc(CCc3ccccc3)nn2)cc1 [MKCA215-19]	nm	463
O=C(CCl)Nc1ccc(C2=C3C=CC(N4CCCC4)=[N+]3[B-](F)(F)n3c2ccc3-n2cc(C3CC3)nn2)cc1 [MKCA215-4]	nm	462
Cc1ccccc1CNC1=[N+]2C(=C(c3ccc(NC(=O)CCl)cc3)c3ccc(-n4cc(C5CCCC5)nn4)n3[B-]2(F)F)C=C1 [MKCA101-5]	nm	466
CCOc1ccccc1CNC1=[N+]2C(=C(c3ccc(NC(=O)CCl)cc3)c3ccc(-n4cc(C5CC5)nn4)n3[B-]2(F)F)C=C1 [MKCA103-4]	nm	464
CCCC(C)c1cn(-c2ccc3n2[B-](F)(F)[N+]2=C(NCc4cc(OC)ccc4OC)C=CC2=C3c2ccc(NC(=O)CCl)cc2)nn1 (stereo not shown) [MKCA181-3]	nm	465
O=C(CCl)Nc1ccc(C2=C3C=CC(NCc4cc(F)cc(F)c4)=[N+]3[B-](F)(F)n3c2ccc3-n2cc(C3CC3)nn2)cc1 [MKCA412-4]	nm	467
CCCC(C)c1cn(-c2ccc3n2[B-](F)(F)[N+]2=C(NCc4ccccc4C)C=CC2=C3c2ccc(NC(=O)CCl)cc2)nn1 (stereo not shown) [MKCA101-3]	nm	464
O=C(CCl)Nc1ccc(C2=C3C=CC(NCc4cc(F)cc(F)c4)=[N+]3[B-](F)(F)n3c2ccc3-n2cc(CCc3ccccc3)nn2)cc1 [MKCA412-19]	nm	466
Cc1ccccc1CNC1=[N+]2C(=C(c3ccc(NC(=O)CCl)cc3)c3ccc(-n4cc(C5CC5)nn4)n3[B-]2(F)F)C=C1 [MKCA101-4]	nm	464
CCCc1cn(-c2ccc3n2[B-](F)(F)[N+]2=C(NCc4ccccc4OCC)C=CC2=C3c2ccc(NC(=O)CCl)cc2)nn1 [MKCA103-48]	nm	465
CCCc1cn(-c2ccc3n2[B-](F)(F)[N+]2=C(N4CC(C)OC(C)C4)C=CC2=C3c2ccc(NC(=O)CCl)cc2)nn1 (stereo not shown) [MKCA20-48]	nm	466

----------
experiment: Quantum yield measurements versus Acridine Yellow in EtOH; assay type: physicochemical; details: MK library, Table 5; excitation 460 nm
quantity_measured: φ (quantum yield) (%)

compound	unit_abbrev	φ (quantum yield)
CC1CN(C2=[N+]3C(=C(c4ccc(N)cc4)c4ccc(-n5cc(CC6CCCCC6)nn5)n4[B-]3(F)F)C=C2)CC(C)O1 (centres unmarked)	%	0.32
CN(Cc1ccccc1)Cc1cn(-c2ccc3n2[B-](F)(F)[N+]2=C(N4CCCC4)C=CC2=C3c2ccc(N)cc2)nn1	%	0.24
CN(Cc1ccccc1)C1=[N+]2C(=C(c3ccc(N)cc3)c3ccc(-n4cc(CC5CCCCC5)nn4)n3[B-]2(F)F)C=C1	%	0.36

A = Nc1ccc(C2=C3C=CC(N4CCCC4)=[N+]3[B-](F)(F)n3c2ccc3-n2cc(C3CC3)nn2)cc1
B = Nc1ccc(C2=C3C=CC(NCc4cc(F)cc(F)c4)=[N+]3[B-](F)(F)n3c2ccc3-n2cc(C3CCCC3)nn2)cc1
C = CCCC(C)c1cn(-c2ccc3n2[B-](F)(F)[N+]2=C(NCc4ccccc4OCC)C=CC2=C3c2ccc(N)cc2)nn1 (centres unmarked)
D = CCCC(C)c1cn(-c2ccc3n2[B-](F)(F)[N+]2=C(NCc4ccccc4C)C=CC2=C3c2ccc(N)cc2)nn1 (centres unmarked)
E = CCCCCC(O)c1cn(-c2ccc3n2[B-](F)(F)[N+]2=C(N4CCc5ccccc5C4)C=CC2=C3c2ccc(N)cc2)nn1 (centres unmarked)
**Query** Order the items by recorded φ (quantum yield); the first position goes to the largest value. Lab note: record answer as labels in requested order.
**Result** C, D, B, A, E
(C: 1.71%, D: 1.08%, B: 0.68%, A: 0.29%, E: 0.14%)

----------
experiment: Absorbance and fluorescence emission spectra (SpectraMax M2); type: physicochemical; settings: MKAC compound library; fluorescence emission maximum
quantity_measured: λmax Em. (nm)

compound	λmax Em. (nm)
COc1ccc(OC)c(CNC2=[N+]3C(=C(c4ccc(NC(C)=O)cc4)c4ccc(-n5cc(CC(C)C)nn5)n4[B-]3(F)F)C=C2)c1	562
CCCC(C)c1cn(-c2ccc3n2[B-](F)(F)[N+]2=C(NCc4cc(OC)ccc4OC)C=CC2=C3c2ccc(NC(C)=O)cc2)nn1 (racemic)	562
CCOc1ccccc1CNC1=[N+]2C(=C(c3ccc(NC(C)=O)cc3)c3ccc(-n4cc(CC(C)C)nn4)n3[B-]2(F)F)C=C1	560
COc1ccc(OC)c(CNC2=[N+]3C(=C(c4ccc(NC(C)=O)cc4)c4ccc(-n5cc(CN(C)Cc6ccccc6)nn5)n4[B-]3(F)F)C=C2)c1	561
CCCCCC(O)c1cn(-c2ccc3n2[B-](F)(F)[N+]2=C(NCc4ccccc4OCC)C=CC2=C3c2ccc(NC(C)=O)cc2)nn1 (stereo not shown)	561
CCCCCC(O)c1cn(-c2ccc3n2[B-](F)(F)[N+]2=C(N4CCc5ccccc5C4)C=CC2=C3c2ccc(NC(C)=O)cc2)nn1 (stereo not shown)	579
CC(=O)Nc1ccc(C2=C3C=CC(N4CCCC4)=[N+]3[B-](F)(F)n3c2ccc3-n2cc(CO)nn2)cc1	574
CCCCCC(O)c1cn(-c2ccc3n2[B-](F)(F)[N+]2=C(N4CC(C)OC(C)C4)C=CC2=C3c2ccc(NC(C)=O)cc2)nn1 (stereo not shown)	590
COc1ccc(OC)c(CNC2=[N+]3C(=C(c4ccc(NC(C)=O)cc4)c4ccc(-n5cc(CCc6ccccc6)nn5)n4[B-]3(F)F)C=C2)c1	561
CCCCCC(O)c1cn(-c2ccc3n2[B-](F)(F)[N+]2=C(NCc4cc(OC)ccc4OC)C=CC2=C3c2ccc(NC(C)=O)cc2)nn1 (racemic)	561
CC(=O)Nc1ccc(C2=C3C=CC(N4CCCC4)=[N+]3[B-](F)(F)n3c2ccc3-n2cc(CN(C)Cc3ccccc3)nn2)cc1	569
CCOc1ccccc1CNC1=[N+]2C(=C(c3ccc(NC(C)=O)cc3)c3ccc(-n4cc(CC5CCCCC5)nn4)n3[B-]2(F)F)C=C1	562
CCCc1cn(-c2ccc3n2[B-](F)(F)[N+]2=C(N4CCc5ccccc5C4)C=CC2=C3c2ccc(NC(C)=O)cc2)nn1	582
CC(=O)Nc1ccc(C2=C3C=CC(N4CC(C)OC(C)C4)=[N+]3[B-](F)(F)n3c2ccc3-n2cc(CC3CCCCC3)nn2)cc1 (stereo not shown)	583
CC(=O)Nc1ccc(C2=C3C=CC(N4CCCC4)=[N+]3[B-](F)(F)n3c2ccc3-n2cc(CC(C)C)nn2)cc1	565
CCCC(C)c1cn(-c2ccc3n2[B-](F)(F)[N+]2=C(NCc4cc(F)cc(F)c4)C=CC2=C3c2ccc(NC(C)=O)cc2)nn1 (stereo not shown)	561
